Experiment: Drug level in LDLR-deficient mouse serum at 60 mg/kg
Format: ADME, organism-based
Set-up: dose 60 mg/kg
READOUT TYPE: Cmax (µM)
Give your result in µM as a bare value.

In plain terms, Cc1cc(SCc2sc(-c3ccc(C(F)(F)F)c(F)c3)nc2C)ccc1OCC(=O)O has a documented Cmax of 21
